Data origin, for the record: PubChem BioAssay AID1159580

# method.description: chemical genetic growth profiling, strain panel (AID 1159580);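 further: tested at 20 µM; growth read once vehicle control cultures reached saturation at 30 °C; 1 = growth at the plate median or of vehicle wells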
# measurement.conditions: S. cerevisiae deletion strains, growth OD, locus YPL055C, strain LGE1
In all, about 5,500 compounds went through this assay and about 2,000 (36%) were called active. Roughly 18% stayed inconclusive and do not appear here. No stated cut-off is given here; in the data, active means normalized growth mostly below about 0.91 (no sharp cut-off); inconclusive means no clear call, values can overlap the other calls; inactive means mostly above about 0.92. The list shows a part of the results.
Respond with a class label; see TRUE for active, FALSE for inactive

# compound, assigned.class
rows = [
    ("CC1(C)CCC2=C(O1)c1ccccc1C(=O)C2=O", "TRUE"),
    ("CC1(C)CC2C1(O)CCC1(C)C=CC(O)C21CO (stereo not given)", "FALSE"),
    ("COC(=O)c1cc(OC)c(OC)cc1-n1c(C)ccc1C", "FALSE"),
    ("CC(=O)c1c(O)c(C)c(O)c2c1OC1=CC(=O)C(C(C)=O)C(=O)C12C (stereo not given)", "FALSE"),
]

Okay, now this compound:
Query block: What is the recorded call for this compound in the test? CN1C2CCC1CC(=NO)C2
Result block: FALSE

###

# method.description: chemical genetic growth profiling, strain panel (AID 1159580)
# measurement.conditions: S. cerevisiae deletion strains, growth OD, locus YAL013W, strain DEP1
In all, about 5,500 compounds went through this assay and about 2,000 (36%) were called active. Another 18% or so got no clear call; they are omitted. Cut-off read from the data, not from the text of the source: active = normalized growth mostly below about 0.91 (no sharp cut-off); inconclusive = no clear call, values can overlap the other calls; inactive = mostly above about 0.92. The list shows a part of the results.
Entry note: the call must match one of active, inactive

Below are worked cases with known answers.
# structure.smiles.string, assigned.class
rows = [
    ("Cc1ccsc1/C=C/C1=NCCCN1C", "inactive"),
    ("O=[N+]([O-])c1ccc2nc(N3CCNCC3)ccc2c1", "inactive"),
    ("COc1ccc(-c2c(C)nc3ccc(Cl)cc3c2-c2ccccc2)cc1OC", "active"),
]

Query block: Given COc1cc(C2N=C(c3ccc(Cl)cc3)SC(c3ccc(Cl)cc3)=N2)cc(OC)c1OC , state the outcome it received in this test.
Result block: inactive

Query block: Assay result, entry COC(=O)c1cc(OC)c(OC)cc1-n1c(C)ccc1C — outcome?
Result block: inactive

Query block: Tell me the recorded outcome of this test for COC(=O)c1cc([N+](=O)[O-])ccc1NC(C)=O .
Result block: inactive

Query block: What outcome does the record of this test show for CC(=O)Nc1cc([As](=O)(O)O)ccc1O ?
Result block: inactive

Query block: What did the test return for O=C(Nc1ccccc1F)C(Cl)Cl ?
Result block: inactive

Query block: Returns: the outcome recorded for O=[N+]([O-])c1cc([As](=O)(O)O)ccc1O in this assay.
Result block: inactive

###

# method.description: chemical genetic growth profiling, strain panel (AID 1159580)
# measurement.conditions: S. cerevisiae deletion strains, growth OD, locus YMR231W, strain pep5
Out of some 5,500 compounds screened, about 2,000 (36%) were called active. Another 18% or so got no clear call; they are omitted. Cut-off read from the data, not from the text of the source: active = normalized growth mostly below about 0.91 (no sharp cut-off); inconclusive = no clear call, values can overlap the other calls; inactive = mostly above about 0.92. This is one part of the list.
Valid outcomes are listed here; reply with one: active, inactive

Consider the following illustrative entries.
# molecule, assigned.class
records = [
    ("CCN(CC)CCNC(=O)c1cc(S(C)(=O)=O)ccc1OC", "inactive"),
    ("O[N+]1=CC=CCC1=S.On1ccccc1=S.[Zn]", "active"),
    ("COC(C)(C)CCC[C@H](C)C/C=C/C(C)=C/C(=O)OC(C)C", "inactive"),
]

Query block: Hi team, can someone confirm the assay call for Nc1ccc(S(=O)(=O)Nc2ccc(Cl)nn2)cc1 ?
Result block: inactive

Query block: Which outcome did this test record for the molecule COc1ccccc1OCCNCC(O)COc1cccc2[nH]c3ccccc3c12 (stereo unspecified) ?
Result block: inactive

Query block: Which result was noted for this molecule in the test: COc1c2c(cc3c1OCO3)CCN(C)C2
Result block: inactive

###

# method.description: chemical genetic growth profiling, strain panel (AID 1159580)
# measurement.conditions: S. cerevisiae deletion strains, growth OD, locus YIL147C, strain SLN1, stronger effect = lower value
In all, about 5,500 compounds went through this assay and about 2,000 (36%) were called active. About 18% were inconclusive and are not listed. The list shows a part of the results.
recorded.metric: normalized growth
Output spec: single numeric token, no unit.

The following molecules have reported results that may help.
# molecule, normalized growth
records = [
    ("O=C1CSC(c2cccnc2)N1c1ccc(Cl)cc1Cl (centres undefined)", 0.998),
    ("NC(=Nc1ccc(F)cc1)SCc1c(Cl)cccc1Cl", 0.99),
    ("Cc1nn(Cc2ccc(C(=O)Sc3ccc(C(F)(F)F)cn3)o2)c(C)c1Br", 0.969),
    ("Cc1c(C)c(C)c(CSC(N)=Nc2ccc(F)cc2)c(C)c1C", 0.992),
    ("Cn1c(CSCCOc2ccccc2)nnc1SCc1ccc(Cl)cc1Cl", 0.985),
    ("CC(=O)Nc1ccc([N+](=O)[O-])cc1[N+](=O)[O-]", 0.927),
    ("O=C(NCCSCc1cccc(C(F)(F)F)c1)c1ccc(Cl)cc1", 0.97),
    ("O=C(Nc1ccc(N2CCOCC2)cc1)c1ccc(-n2cccn2)cc1", 0.972),
    ("Cc1c2c(=O)[nH]ncc2c(-c2ccccc2)n1-c1ccc([N+](=O)[O-])cc1", 0.993),
    ("O=[N+]([O-])/C=C/c1ccsc1", 0.266),
]

Query block: Any idea what its normalized growth is? The molecule is O=C(NCc1ccncc1)c1ccc(-n2cccn2)cc1
Result block: 0.982

Query block: Which normalized growth reading was recorded for the molecule CC(C)c1ccc(N2C=Nc3ccc(C(C)C)cc3C2)cc1 ?
Result block: 1

Query block: Recorded normalized growth of O=[N+]([O-])c1ccccc1CS(=O)(=O)c1nc2ccccc2s1 , please.
Result block: 0.894

Query block: I'd like to know its normalized growth. The molecule in question is CCCc1c(C(=O)NC2Cc3ccccc3C2)cnn1-c1ccccc1
Result block: 0.994

Query block: Recorded normalized growth for CCCc1c(C(=O)NNc2cccc(Cl)c2)cnn1-c1ccccc1 , please?
Result block: 0.992

###

# method.description: chemical genetic growth profiling, strain panel (AID 1159580);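 further: tested at 20 µM; growth read once vehicle control cultures reached saturation at 30 °C; 1 = growth at the plate median or of vehicle wells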
# measurement.conditions: S. cerevisiae deletion strains, growth OD, locus YNL298W, strain CLA4 (second series)
Hit rate of the full screen: of about 5,500 compounds, about 2,000 (36%) were called active. About 18% were inconclusive and are not listed. Cut-off read from the data, not from the text of the source: active = normalized growth mostly below about 0.91 (no sharp cut-off); inconclusive = no clear call, values can overlap the other calls; inactive = mostly above about 0.92. This is one part of the list.
Outcome field: choose from t for active, f for inactive

Examples from the recorded data:
# compound, assigned.class
rows = [
    ("NC(=S)N/N=C\\c1ccc(F)c(Cl)c1", "t"),
    ("NC(=S)N/N=C\\c1cc(F)cc(F)c1", "t"),
    ("COc1ccc(-c2c(C)nc3ccc(Cl)cc3c2-c2ccccc2)cc1OC", "f"),
    ("OC(CNCCc1cccs1)COc1ccccc1 (configuration not stated)", "f"),
    ("CCCc1cc(Br)c(-n2cccc2)c(Br)c1", "f"),
]

Query block: Could you please tell me the result logged for NC(=NS(=O)(=O)c1cc(C(F)(F)F)cc(C(F)(F)F)c1)c1cccs1 in this assay?
Result block: f

Query block: Name the outcome recorded for CCOc1ccc(/C=C(\C)[N+](=O)[O-])cc1OC in the assay.
Result block: t

Query block: For NC(N)=NC(N)=Nc1cc(C(F)(F)F)cc(C(F)(F)F)c1 , what call appears in the results of this test?
Result block: f

Query block: Which outcome was entered for the compound NC(=S)N/N=C\c1ccccc1 in this test?
Result block: t

Query block: // param item: CCCCCCNC(=O)NCCCCCC ; yields the recorded call
Result block: f

Query block: So what was the verdict on COc1cc(C2N=C(c3ccc(Cl)cc3)SC(c3ccc(Cl)cc3)=N2)cc(OC)c1OC in this test?
Result block: f

Query block: Record request — test call for CC(C)(C)NS(=O)(=O)NC(C)(C)C
Result block: f

###

# method.description: chemical genetic growth profiling, strain panel (AID 1159580);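 further: tested at 20 µM; growth read once vehicle control cultures reached saturation at 30 °C; 1 = growth at the plate median or of vehicle wells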
# measurement.conditions: S. cerevisiae deletion strains, growth OD, locus YLR262C, strain YPT6 (second series), stronger effect = lower value
Out of some 5,500 compounds screened, about 2,000 (36%) were called active. Not shown: some 18% with an inconclusive outcome. Some of the results follow.
recorded.metric: normalized growth
Answer with a bare number; do not write a unit.

Query block: Quick one: normalized growth of O=C(O[C@@H]1Cc2c(O)cc(O)cc2O[C@@H]1c1cc(O)c(O)c(O)c1-c1c([C@H]2Oc3cc(O)cc(O)c3C[C@H]2O)cc(O)c(O)c1O)c1cc(O)c(O)c(O)c1 ?
Result block: 0.89

###

The reader will find reported normalized growth values listed item by item below.
# method.description: chemical genetic growth profiling, strain panel (AID 1159580);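 further: tested at 20 µM; growth read once vehicle control cultures reached saturation at 30 °C; 1 = growth at the plate median or of vehicle wells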
# measurement.conditions: S. cerevisiae deletion strains, growth OD, locus YCL011C, strain gbp2, stronger effect = lower value
About 2,000 (36%) of roughly 5,500 compounds were called active. Not shown: some 18% with an inconclusive outcome. Some of the results follow.
Please state the value as a number alone, without comment.

Below, 4 compounds whose answers are already recorded.
# structure.smiles.string, normalized growth
data = [
    ("CCOC(=O)c1oc2c(OC)c(O)cc(O)c2c(=O)c1-c1cc(OC)c(OC)c(OC)c1", 0.976),
    ("O=C(O)c1ccccc1Nc1cccc(C(F)(F)F)c1", 0.86),
    ("COc1cc(OC)c2c(=O)c(-c3ccccc3)c(C)oc2c1OC", 0.973),
    ("NCCCC[C@H](N[C@@H](CCc1ccccc1)C(=O)O)C(=O)N1CCC[C@H]1C(=O)O", 0.997),
]

Turning now to a further compound:
Query block: Give the measured normalized growth of CN/C(=C\[N+](=O)[O-])NCCSCc1ccc(CN(C)C)o1 .
Result block: 0.984
